- Test system: Plasmodium berghei
- test.method.notes: Screen against P. berghei liver stage (PbLuc), transformed with Luciferase, at 10uM
- Type: functional, HepG2
- experimental.context: tested at 10 uM
The campaign covered roughly 69,000 compounds. About 8,600 (12%) showed an effect of 50% or more. This is one part of a sample in which strong results are shown more often than they occur.
Labelling field: enter criterion met if recorded INHIBITION is less than 10%. Enter criterion not met if it equals or exceeds that cut-off.

molecule	class.name
CC(C)CN1CC2(CCN(C(=O)C3CNC(=O)N3)CC2)CC1=O (configuration not stated)	criterion not met
CC1CCCCN1C(=O)c1nc2c(n1C(C)C)CCN(C(=O)C1CC1)C2 (configuration not stated)	criterion met
Cc1ccc(CNC(=O)NC(C)CN2CCOCC2)s1 (configuration not stated)	criterion not met
CC(C)CN1CC2(CCN(C(=O)c3cn4cccnc4n3)CC2)CC1=O	criterion met
Cc1nc(C2CCCN(C(=O)c3cnc(C)s3)C2)no1 (configuration not stated)	criterion met
Cc1nn(C)cc1S(=O)(=O)NCC(c1ccccc1)N1CCCCCC1 (configuration not stated)	criterion not met
Cc1nc(C2CCCN(C(=O)c3cccc(S(C)(=O)=O)c3)C2)no1 (configuration not stated)	criterion not met
CN1CCc2cc(C(CNS(=O)(=O)c3cccs3)N3CCCC3)ccc21 (configuration not stated)	criterion not met
Cc1nc(C2CCCN(C(=O)c3sc(C)nc3C)C2)no1 (configuration not stated)	criterion not met
CCc1nc(C2CCCN(C(=O)C3=NN(C(C)C)C(=O)CC3)C2)no1 (configuration not stated)	criterion not met

# input Is it true that INHIBITION reported for COc1ccccc1N1CCC(CNS(=O)(=O)c2cccs2)C1 (configuration not stated) is less than 10%?
# output criterion met

# input Proceed to CN(C)CC(=O)N1CCOC2(CCCN(c3ncccc3F)C2)C1 (configuration not stated)
# output criterion not met

# input Do the same for CCN1N=C(C(=O)N2CCCC(c3noc(C)n3)C2)CCC1=O (configuration not stated) please
# output criterion not met

# input What would you report for Cc1nc(C2CCCN(C(=O)c3ccc(S(C)(=O)=O)cc3)C2)no1 (configuration not stated) ?
# output criterion met

# input Another molecule to look at: Cc1nc(C2CCCN(C(=O)c3cc(C)sc3C)C2)no1 (configuration not stated)
# output criterion not met

# input Then this molecule: CC(C)CN1CC2(CCN(C(=O)C(O)c3ccccc3Cl)CC2)CC1=O (configuration not stated)
# output criterion met

# input Next record, please: CC(C)CN1CC2(CCN(C(=O)C3CSC(C)(C)C(=O)N3)CC2)CC1=O (configuration not stated)
# output criterion not met
